Experiment: A549 lung cancer cell viability effects, profiling panel, resazurin fluorescence, 24 h, PK04 Diversity Set (AID 1171); note: test concentration not given here
Settings: higher = more signal, called active from +8 up or from −8 down
# key: entry, value: z-score
Respond using a number only.

Observe how each entry below is paired with its result.
COC(=O)[C@@]1(Cc2ccc(OC)cc2)[C@H]2c3cc(C(=O)N(C)C)n(Cc4c(CO)[nH]cc(C)c4=O)c3C[C@H]2CN1C(=O)c1ccccc1
0.252
COc1ccc(CCNC(=O)[C@@H]2c3ccccc3C(=O)N(C(C)C)[C@H]2c2ccc(CO)cc2)cc1
1.12

Attention now shifts to the item below.
Field request: z-score | item: COCCOC(=O)N1C(=O)[C@@]2(c3cc(C#CCNC(N)=O)ccc31)[C@H](C(=O)N1CCN(c3ncccn3)CC1)[C@H]1C(=O)O[C@H](c3ccccc3)[C@H](c3ccccc3)N1[C@@H]2c1ccc(O)cc1
-0.824
